Catalogue of GI50 readings, one per entry.
Tested on: SF-539
protocol_details: NCI tumour cell line growth inhibition, 48 h
The source made the active and inactive calls. No stated cut-off is given here; in the data, active = GI50 up to about 1.1 µM and inactive = higher.

See these solved cases before continuing.
>  <compound>
CCN1CCC(O)(/C=C/c2ccc(OC)cc2)C(C(=O)/C=C/c2ccc(OC)cc2)C1 (stereo not given)

>  <target_entity>
SF-539

>  <measured_result>
13.7 µM (inactive)

$$$$
>  <compound>
COc1ccc2oc3c(C)cc4c(OC)nnc(OC)c4c3c2c1

>  <target_entity>
SF-539

>  <measured_result>
7.89 µM (inactive)

$$$$
>  <compound>
CC(=O)c1cc2c(Br)cccc2oc1=O

>  <target_entity>
SF-539

>  <measured_result>
> 100 µM (inactive)

$$$$
>  <compound>
CCCCNC(=O)N/C=C1\C(=O)Oc2ccccc2C1=O

>  <target_entity>
SF-539

>  <measured_result>
39.4 µM (inactive)

$$$$
>  <compound>
C[C@@H](CO)C1=CC(C#C[Si](C)(C)C)N(C(=O)Oc2ccccc2)c2ccccc21 (stereo not given in full)

>  <target_entity>
SF-539

>  <measured_result>
17.8 µM (inactive)

$$$$
>  <compound>
O=C(c1ccccc1)c1c(-c2ccccc2)sc2nc3ccccc3nc12

>  <target_entity>
SF-539

>  <measured_result>
47.9 µM (inactive)

$$$$
>  <compound>
COc1ccccc1/C=C(\C#N)c1ccccc1

>  <target_entity>
SF-539

>  <measured_result>
34.8 µM (inactive)

$$$$
>  <compound>
CN(C)C=O.O=C(Nc1nnn[nH]1)c1nc(O)cc(-c2ccccc2)n1

>  <target_entity>
SF-539

>  <measured_result>
> 100 µM (inactive)

$$$$

### Prompt Recorded GI50 for COC1=CC(=O)c2c(cc3c(c2O)-c2c(OC)cc4cc5c(c(O)c4c2OC(=O)CC(C)(O)C3)C(=O)CC(C)(O)C5)C1=O (stereo not given) , please?
### Response 1.57 µM (inactive)

### Prompt Item CCCCOC(=O)NC(=O)c1cn(C2CCCCC2)c(=O)[nH]c1=O has what recorded GI50?
### Response 18.5 µM (inactive)

====

Tested on: HCT-116
protocol_details: NCI tumour cell line growth inhibition, 48 h
Active and inactive are the calls of the source. Rule as the data show it: active = GI50 up to about 1.1 µM and inactive = higher.
endpoint: GI50

The following compounds have reported results that may help.
>  <compound>
COc1cc(C2c3cc4c(cc3[C@@H](OCCN)[C@H]3COC(=O)C23)OCO4)cc(OC)c1O (stereo not given in full)

>  <GI50>
0.995 µM (active)

$$$$
>  <compound>
COc1cccc(N2C(=O)C3c4[nH]c5ccccc5c4C4CCCC4C3C2=O)c1 (stereo not given)

>  <GI50>
2.87 µM (inactive)

$$$$
>  <compound>
NC(=S)N/N=C/c1ncccc1N [TRIAPINE]

>  <GI50>
0.986 µM (active)

$$$$
>  <compound>
COc1cc([C@@H]2c3cc4c(cc3[C@@H](Nc3ccc(/N=C\c5ccc(C(=O)O[C@@H](C(=O)O[C@H]6C[C@@]7(O)[C@@H](OC(=O)c8ccccc8)[C@@H]8[C@]9(OC(C)=O)CO[C@@H]9C[C@H](O)[C@@]8(C)C(=O)[C@H](OC(C)=O)C(=C6C)C7(C)C)[C@@H](NC(=O)c6ccccc6)c6ccccc6)cc5)cc3)[C@H]3COC(=O)[C@H]23)OCO4)cc(OC)c1O

>  <GI50>
3.28 µM (inactive)

$$$$
>  <compound>
CC(=O)OCC1C(=O)OCC1C(=O)N1Cc2cc3ccccc3nc2C1 (stereo not given)

>  <GI50>
1.27 µM (inactive)

$$$$

### Prompt Item under review: CC(C)n1c2c([n+](C)c1/C=C/c1ccccc1)C(=O)c1ccccc1C2=O . Reported GI50?
### Response 0.0748 µM (active)

### Prompt Which GI50 is listed for S=C(N/N=C(\c1ccccc1)c1ccccn1)NC1CCCCC1 ?
### Response 0.566 µM (active)

====

System: IGROV-1
protocol_details: NCI tumour cell line growth inhibition, 48 h
Calls of active or inactive are those of the source. Cut-off read from the data, not from the text of the source: active = GI50 up to about 1.1 µM and inactive = higher.
endpoint: GI50

Examples with answers:
>  <structure>
COc1ccc2nc(-c3ccccn3)cc(O)c2c1

>  <measured_result>
44.6 µM (inactive)

$$$$
>  <structure>
COc1cc(/C=C2\N=C(c3ccccc3)N(c3cc4cc(Sc5ccccc5)ccc4[nH]3)C2=O)cc(OC)c1OC

>  <measured_result>
15.5 µM (inactive)

$$$$

Moving on to another molecule below.
### Prompt Kindly state the measured GI50 obtained for CC(=O)N[C@@H](Cc1ccc(O)cn1)C(=O)NCc1cccc(F)c1 with IGROV-1.
### Response > 100 µM (inactive)

====

Tested on: LOX IMVI
protocol_details: NCI tumour cell line growth inhibition, 48 h
Active and inactive are the calls of the source. Cut-off read from the data, not from the text of the source: active = GI50 up to about 1.1 µM and inactive = higher.
Recorded GI50, one value per entry.

>  <molecule>
O=c1c2ccccc2nc(-c2ccccc2)n1NC(=S)Nc1ccc(Cl)cc1

>  <endpoint>
GI50

>  <measured_result>
> 100 µM (inactive)

$$$$
>  <molecule>
[O-][S+](CCc1ccccc1)Nc1ccccc1 (stereo unspecified)

>  <endpoint>
GI50

>  <measured_result>
> 100 µM (inactive)

$$$$
>  <molecule>
Cc1ccc([S+]([O-])C(C)C(Cl)c2ccccc2)cc1 (stereo unspecified)

>  <endpoint>
GI50

>  <measured_result>
> 100 µM (inactive)

$$$$
>  <molecule>
O=C(Cc1nccc2c1[nH]c1ccccc12)OC1C#CCSCC#C/C=C\1 (stereo unspecified)

>  <endpoint>
GI50

>  <measured_result>
57.9 µM (inactive)

$$$$
>  <molecule>
C=CCCC1(CCP(=O)(c2ccccc2)c2ccccc2)OCCO1

>  <endpoint>
GI50

>  <measured_result>
> 100 µM (inactive)

$$$$
>  <molecule>
COc1ccc(N[S+]([O-])CCc2ccccc2)cc1 (stereo unspecified)

>  <endpoint>
GI50

>  <measured_result>
> 100 µM (inactive)

$$$$

### Prompt Any idea what its GI50 is? The molecule is Cn1c(CC(O)c2nc3ccccc3n2C)nc2ccccc21 (stereo unspecified)
### Response > 28.8 µM (inactive)

### Prompt For the molecule shown here, Nc1nc(-[n+]2ccc(-c3ccncc3)cc2)nc(Cl)c1Cl , give the reported GI50.
### Response 15 µM (inactive)

### Prompt Which value of GI50 has been reported for O=c1cc(/N=N\c2ccc(Cl)cc2)[nH]c(=O)[nH]1 in the records?
### Response 1.57 µM (inactive)

### Prompt Look at this molecule and give its reported GI50. Cn1cnc2c(sc3nc4ccccc4n32)c1=N
### Response > 100 µM (inactive)

### Prompt Which measured GI50 value corresponds to [N-]=[N+]=NC1C(Br)C(=O)NC(=O)N1[C@H]1C[C@H](O)[C@@H](CO)O1 (stereo partly specified) ?
### Response > 100 µM (inactive)

====

Tested on: HCC 2998
protocol_details: NCI tumour cell line growth inhibition, 48 h
Active and inactive are the calls of the source. Rule as the data show it: active = GI50 up to about 1.1 µM and inactive = higher.
endpoint: GI50

Consider the worked cases shown below.
>  <compound>
CCOc1ccc2[nH]c3c(C)c4cc[n+](C)cc4c(C)c3c2c1

>  <GI50>
3.27 µM (inactive)

$$$$
>  <compound>
CC1(C)CCC[C@]2(C)[C@@H]1CC[C@@]13O[C@@H]1C1=C(CO)C(=O)O[C@]14O[C@@H]4[C@@H]23

>  <GI50>
19.2 µM (inactive)

$$$$
>  <compound>
C[C@]12Cc3cnn(-c4ccc(F)cc4)c3NC1CC[C@@H]1C2CC[C@@]2(C)C1CC[C@@H]2O (stereo not given in full)

>  <GI50>
5.41 µM (inactive)

$$$$
>  <compound>
C=CC1(c2ccc(-c3ccccc3)cc2)OCCO1

>  <GI50>
63.7 µM (inactive)

$$$$
>  <compound>
COc1ccc(-c2nc3ccc([N+](=O)[O-])cc3c(=O)[nH]2)cc1

>  <GI50>
> 100 µM (inactive)

$$$$
>  <compound>
O=C(N1CCN(c2ccccc2)CC1)N(C(=O)C1(c2ccc(Cl)cc2)CCCC1)S(=O)(=O)c1ccccc1

>  <GI50>
23.9 µM (inactive)

$$$$
>  <compound>
CCOC(=O)/C(=C\NC(N)=S)C(=O)c1ccccc1

>  <GI50>
> 100 µM (inactive)

$$$$
>  <compound>
Cc1ccc(C(=O)/C=C/c2cccc([N+](=O)[O-])c2)cc1

>  <GI50>
> 54.7 µM (inactive)

$$$$
>  <compound>
NCCOCC(N)C(=O)O (stereo not given)

>  <GI50>
> 100 µM (inactive)

$$$$
>  <compound>
Cc1nn2c(=O)c([N+](=O)[O-])c(/C=C/c3ccccc3)nc2s1

>  <GI50>
8.13 µM (inactive)

$$$$

### Prompt Reported GI50, compound CC1C2Cc3ccc(O)cc3C1(C)CCN2C (stereo not given) : ____
### Response > 100 µM (inactive)

### Prompt # input compound: C[C@H](C(=O)N1C(=O)O[C@@H](c2ccccc2)[C@H]1C)[C@H](c1ccccc1)N(Cc1ccccc1)OC(=O)c1ccccc1 ; wanted: its GI50
### Response 21.6 µM (inactive)

### Prompt Query: GI50; subject: COc1ccc(-c2c(C(C)=O)c(C)n(C3OC(COC(C)=O)C(OC(C)=O)C(OC(C)=O)C3OC(C)=O)c(=S)c2C#N)cc1 (stereo not given)
### Response > 100 µM (inactive)

### Prompt Would you kindly share the measured GI50 for Cn1c(=O)c(-c2ccccc2)c(N=[N+]=[N-])c2ccccc21 ?
### Response 22.4 µM (inactive)

### Prompt Record request: GI50 value, item C/C(CC(=O)Nc1ccc(Cl)c(Cl)c1)=N/NC(=O)C[N+](C)(C)C
### Response > 100 µM (inactive)
